test system: LNCaP; test: Anti-proliferative activity against human LNCAP cells measured after 96 hrs by MTT assay; type: functional
measure: GI50 (µM)

Sample records with GI50:
- test smiles: "COC(=O)[C@@]1(C)C(=O)C(C#N)=C[C@]2(C)[C@H]3C(=O)C=C4[C@@H]5[C@@H](C)[C@H](C)CC[C@]5(C)CC[C@@]4(C)[C@]3(C)CC[C@@H]12"
  GI50 (µM): 2.34
- test smiles: "C[C@H]1[C@H](C)CC[C@]2(C)CC[C@]3(C)C(=CC(=O)[C@@H]4[C@@]5(C)C=C(C(F)(F)F)C(=O)[C@](C)(C(=O)OCc6ccccc6)[C@@H]5CC[C@]43C)[C@H]12"
  GI50 (µM): 3.92
- test smiles: "C[C@H]1[C@H](C)CC[C@]2(C)CC[C@]3(C)C(=CC(=O)[C@@H]4[C@@]5(C)C=C(C(F)(F)F)C(=O)[C@](C)(C(=O)N6CCCCC6)[C@@H]5CC[C@]43C)[C@H]12"
  GI50 (µM): 3.21

(A) C[C@H]1[C@H](C)CC[C@]2(C)CC[C@]3(C)C(=CC(=O)[C@@H]4[C@@]5(C)C=C(C(F)(F)F)C(=O)[C@](C)(C(=O)N6CCCC6)[C@@H]5CC[C@]43C)[C@H]12
(B) C[C@H]1[C@H](C)CC[C@]2(C)CC[C@]3(C)C(=CC(=O)[C@@H]4[C@@]5(C)C=C(C#N)C(=O)[C@](C)(C(=O)N6CCCCC6)[C@@H]5CC[C@]43C)[C@H]12
Query: Lab note: check whether A or B has the lower measured GI50. // return label of chosen record
Reply: B
